Hi there, I'd appreciate the recorded melting point for every entry that follows.

Q: Can you look up the measured melting point of O=C(O)[C@@H](Cc1ccccc1)NS(=O)(=O)c1ccc(-c2nnn(-c3ccc([N+](=O)[O-])cc3)n2)cc1 (hydrate or solvate) for me?
A: 190 to 191 °C

Q: Can you look up the measured melting point of `O=C(O)[C@@H](Cc1ccccc1)NS(=O)(=O)c1ccc(-c2nnn(-c3ccc(O)cc3)n2)cc1` for me?
A: 226 to 228 °C

Q: Can you look up the measured melting point of Cn1cc(CC(NS(=O)(=O)c2ccc(-c3nnn(-c4ccccc4)n3)cc2)C(=O)O)c2ccccc21 (stereo not shown) for me?
A: 199 to 202 °C

Q: Can you look up the measured melting point of O=C(O)[C@@H](Cc1ccccc1)NS(=O)(=O)c1ccc(-c2nnn(-c3ccc(Cl)cc3)n2)cc1 (hydrate or solvate) for me?
A: 204 to 206 °C

Q: Can you look up the measured melting point of `CC(C)[C@@H](NS(=O)(=O)c1ccc(-c2nnn(-c3ccccc3)n2)cc1)C(=O)O` for me?
A: 221 to 222 °C

Q: Can you look up the measured melting point of O=C(O)[C@@H](Cc1ccccc1)NS(=O)(=O)c1ccc(-c2nnn(-c3ccc(C4CCCCC4)cc3)n2)cc1 (hydrate or solvate) for me?
A: 225 to 227 °C

Q: Can you look up the measured melting point of `CC(C)C[C@@H](NS(=O)(=O)c1ccc(-c2nnn(-c3ccccc3)n2)cc1)C(=O)O` for me?
A: 202 to 204 °C
